Molecular target: Neuropeptide Y receptor type 4 (Mus musculus)
Test: Allosteric antagonist activity at NPY4R in mouse descending colon mucosa assessed as reduction in rPP-induced ion transport by electrophysiology
Recorded endpoint: IC50 (µM)
Respond numerically; units are µM and should not be typed.

Task item: Find IC50 (Neuropeptide Y receptor type 4 (Mus musculus)) for the entry CS(=O)(=O)N1CCCC[C@H]1C(=O)Nc1nc2cc3c(cc2s1)OCCO3
Reply: 3.8

====

Quick reference: IC50 of the listed items.
Target: Neuropeptide Y receptor type 4 (Homo sapiens)
Sequence (P50391 whole entry): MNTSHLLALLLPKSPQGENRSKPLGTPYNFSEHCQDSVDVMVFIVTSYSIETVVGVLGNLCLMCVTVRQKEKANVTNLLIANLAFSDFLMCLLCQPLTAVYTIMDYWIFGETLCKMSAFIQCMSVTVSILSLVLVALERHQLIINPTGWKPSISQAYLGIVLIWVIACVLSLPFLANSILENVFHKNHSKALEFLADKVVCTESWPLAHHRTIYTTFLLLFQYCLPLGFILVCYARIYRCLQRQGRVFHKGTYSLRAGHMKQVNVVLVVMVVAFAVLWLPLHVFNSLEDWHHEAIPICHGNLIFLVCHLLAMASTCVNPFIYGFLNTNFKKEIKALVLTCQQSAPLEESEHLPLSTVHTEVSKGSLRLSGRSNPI
Test: Allosteric antagonist activity at […]-tagged human NPY4R expressed in COS7 cells co-expressing Gqi5-alpha assessed as inhibition of PP-induced Ca2+ flux by Fluo-2 AM dye based fluorescent assay relative to control
Type: functional, cell-based
Settings: read-out: IC50
Respond numerically; units are µM and should not be typed.

CS(=O)(=O)N1CCCC[C@H]1C(=O)Nc1nc2cc3c(cc2s1)OCCO3; 2.7

Task item: Need IC50, item CS(=O)(=O)N1CCCCC1C(=O)Nc1nc2cc3c(cc2s1)OCCO3 (racemic)
Reply: 4
